Known apparent KD of K4 kissing-loop reporter of a selection of sequences
test system: K4 kissing-loop RNA reporter; test: apparent KD of K4 kissing-loop reporter; higher = weaker reporter binding; settings: Eterna round: R107; input ligand: arginine 13.2 mM;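 further: bound reporter read as fluorescence of individual clusters on recovered sequencing chips by microscopy, with normalized cluster intensities fitted with a binding model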
Kindly write the number and append the unit.

Example sequences with recorded apparent KD of K4 kissing-loop reporter:
>>> meas_value("CCUAUCUGUUACGAUACCAGUCAAUGAUAUUUUAUCAAUGCCCUCACCGAGUGAUGUUCGGACCCUUGGCAGCGUCUGGGAUAGG [tyygpimullin]")
"148 nM"
>>> meas_value("UCCUACGAGGUAACGUGGAUAUCUCGUUGCAAGGAUAUCUGGAAACAGAGAAGGUGCAACAUUAUCAGCAGUGAUGUUGCUGACC")
"247 nM"

**Query** GET /values?readout=apparent KD of K4 kissing-loop reporter&item= CCCGUACCAGUGAUGUUGGUAUGGUCUGAUACCAGUCUGUAGUCGGGCCCUUGGCAGCAGACCCUUGCCAAGGUGACGACUCCGG [Qu]
**Result** 146 nM
